Listing of recorded viability, T/C by entry.
# Test system: KRAS PDC tumor spheroids (HUVEC+MSC), viability;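 further: spheroids exposed to compounds for seven days before readout; 100% = DMSO vehicle control luminescence of the spheroids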
# testDetails: Anticancer human tumor 254851-301-R-J1-PDC patient-derived colon carcinoma cell line growth inhibition [KRAS2]
# particulars: second compound 1 µM; first compound 0.01 µM; stronger effect = lower value
Write the value in % as a bare number.

Q. So what does the record say about viability, T/C for CC(C)n1nc(-c2ccc3oc(N)nc3c2)c2c(N)ncnc21 + COc1cc2nc(C)nc(NC(C)c3cc(N)cc(C(F)(F)F)c3)c2cc1OC1CCOC1 ?
A. 72.2

Q. And what about the compound CC(C)n1nc(-c2ccc3oc(N)nc3c2)c2c(N)ncnc21 + CC1OCC2(CCN(c3cnc(Sc4ccnc(N)c4Cl)c(N)n3)CC2)C1N ?
A. 64.8

Q. And what about the compound Cn1ncnc1[C@H]1c2n[nH]c(=O)c3cc(F)cc(c23)N[C@@H]1c1ccc(F)cc1 + CNCc1ccccc1-c1csc(C(C)Nc2nc(C)nc3cc(OC)c(OC)cc23)c1 ?
A. 84
